Tested on: modified luciferase
Test: Luciferase expression in liver, lung, spleen and femur 6 hours after intravenous administration to mice
Assay type: in vivo
Settings: liver, 6 hours after intravenous 0.5 mpk, mice
Measured Attribute: Total Flux, Liver

[[record]]
molecule = "CCCCCCCCCCCOC(=O)CCCCCN(CCO)CCCCCCCC(=O)N(CCCCCCCC)CCCCCCCC [Compound 129]"
measured_attribute = "Total Flux, Liver"
meas_value = "6.65E+08"

[[record]]
molecule = "CCCCCCCCCOC(=O)CCCCCCCN(CCCCCCCC(=O)OC(CCCCCCCC)CCCCCCCC)C[C@@H](C)O [Compound 11]"
measured_attribute = "Total Flux, Liver"
meas_value = "8.03E+08"

[[record]]
molecule = "CCCCCCCCCOC(=O)CCCN(C)CCCCCCCC(=O)OC(CCCCCCCC)CCCCCCCC [Compound 126]"
measured_attribute = "Total Flux, Liver"
meas_value = "7.41E+08"

[[record]]
molecule = "CCCCCCCCC(CCCCCCCC)OC(=O)CCCCCCCN(CCO)CCCCCCCCC1CC1CCCCCCCC (stereo not shown) [Compound 47]"
measured_attribute = "Total Flux, Liver"
meas_value = "4.86E+09"

[[record]]
molecule = "CCCCCCCCCOC(=O)CCCCCCCN(CCO)CCCCCCCC(=O)OC(C)CCCCCCCC (stereo not shown) [Compound 36]"
measured_attribute = "Total Flux, Liver"
meas_value = "2.65E+07"

[[record]]
molecule = "CCCCCCCCCOC(=O)CCCCCCCN(CCO)CCCCCCCOP(=O)(OCCCCCCCC)OCCCCCCCC [Compound 131]"
measured_attribute = "Total Flux, Liver"
meas_value = "3.52E+08"

[[record]]
molecule = "CCCCCCCCCOC(=O)CCCCCCCN(CCCCCCCC(=O)OC(CCCCCCCC)CCCCCCCC)CCCNC(C)=O [Compound 108]"
measured_attribute = "Total Flux, Liver"
meas_value = "4.63E+08"

[[record]]
molecule = "CCCCCC=CCC=CCCCCCCCCC(CCCCCCCCC=CCC=CCCCCC)OC(=O)CCCN(C)C (stereo not shown) [MC3, reference compound]"
measured_attribute = "Total Flux, Liver"
meas_value = "2.57E+09"

[[record]]
molecule = "CCCCCCCCCC(=O)OCCCCCCCN(CCO)CCCCCCCOC(=O)C(CCCCCCCC)CCCCCCCC [Compound 151]"
measured_attribute = "Total Flux, Liver"
meas_value = "4.72E+09"

[[record]]
molecule = "CCCCCCCCCOC(=O)CCCCCCCN(CCO)CCCCCCCC(=O)OC(CCCC)CCCC [Compound 57]"
measured_attribute = "Total Flux, Liver"
meas_value = "9.36E+05"

[[record]]
molecule = "CCCCCCCCCOC(=O)CCCCCCCN(CCO)CCCCCCCC(=O)OC(CCCCC)CCCCCCCC (stereo not shown) [Compound 33]"
measured_attribute = "Total Flux, Liver"
meas_value = "1.78E+10"

[[record]]
molecule = "CCCCCCCCCOC(=O)CCCCCCCN(CCO)CCCCCCCC(=O)OC(C)(C)C [Compound 158]"
measured_attribute = "Total Flux, Liver"
meas_value = "1.99E+05"

[[record]]
molecule = "CCCCCCCCC(CCCCCCCC)OC(=O)CCCCCCCN(CCO)CCCC(=O)OCC1CC1CCCCCC (stereo not shown) [Compound 55]"
measured_attribute = "Total Flux, Liver"
meas_value = "1.92E+09"

[[record]]
molecule = "CCCCCCCCCOC(=O)CCCCCCCN(CCCCCCCC(=O)OC(CCCCCCCC)CCCCCCCC)CCOC [Compound 15]"
measured_attribute = "Total Flux, Liver"
meas_value = "6.23E+06"

[[record]]
molecule = "CCCCCCCCC(C)OC(=O)CCCCCCCN(CCO)CCCCCCCC(=O)N(CCCCCCCC)CCCCCCCC (stereo not shown) [Compound 130]"
measured_attribute = "Total Flux, Liver"
meas_value = "8.17E+09"

[[record]]
molecule = "CCCCCCCCC(CCCCCCCC)OC(=O)CCCCCCCN(CCO)CCCC(=O)OCCCCCCC [Compound 54]"
measured_attribute = "Total Flux, Liver"
meas_value = "5.57E+09"


###

Measured Size, listed per entry.
Assay: Particle size and polydispersity index of nanoparticle compositions (Zetasizer Nano ZS)
Format: physicochemical
Settings: Table 1B; formulated with hEPO mRNA
Measured Attribute: Size (nm)

[[record]]
compound = "CCCCCCCCC(CCCCCCCC)OC(=O)CCCCCCCN(CCO)CCCCCC(=O)OC(C)CCCCCCCCOC(C)=O (stereo not drawn)"
measured_attribute = "Size"
meas_value = 228

[[record]]
compound = "CCCCCCCCCOC(=O)CCCCCCCN(CCCCCCCC(=O)OC(CCCCCCCC)CCCCCCCC)CCCNC(=O)N(C)C"
measured_attribute = "Size"
meas_value = 73.3

[[record]]
compound = "CCCCCCCCCOC(=O)CCCCCCCN(CCO)CCCCCCCOC(=O)C(CCCCCCCC)CCCCCCCC"
measured_attribute = "Size"
meas_value = 76.3

[[record]]
compound = "CCCCCCCCC(CCCCCCCC)OC(=O)CCCCCCCN(CCO)CCCCCCCC(=O)OCC(C)CCCCCCC (stereo not drawn)"
measured_attribute = "Size"
meas_value = 85.8

[[record]]
compound = "CCCCCCCCCOC(=O)CCCCCCCN(CCCCCCCC(=O)OC(CCCCCCCC)CCCCCCCC)CCCN/C(=N/S(C)(=O)=O)N(C)C"
measured_attribute = "Size"
meas_value = 93.7

[[record]]
compound = "CCCCCCCCC(CCCCCCCC)OC(=O)CCCCCCCN(CCO)CCCCCCCCCC(=O)OCCCCCCC"
measured_attribute = "Size"
meas_value = 95.5

[[record]]
compound = "CCCCCCCCCOC(=O)CCCCCCCN(CCCCCCCC(=O)OC(CCCCCCCC)CCCCCCCC)CCCC(N)=O"
measured_attribute = "Size"
meas_value = 90.6

[[record]]
compound = "CCCCCCCCCCCOC(=O)CCCCCN(CCO)CCCCCCCC(=O)OC(CCCCCCCC)CCCCCCCC"
measured_attribute = "Size"
meas_value = 69.7

[[record]]
compound = "CCCCCCCCCOC(=O)CCCCCCCN(CCO)CCCCCCCC(=O)OC(CCCCCCCC)CCCCCCCC"
measured_attribute = "Size"
meas_value = 73.7


###

Assay: Pharmacokinetic study of lipids in plasma, liver and spleen (compound 18, compound 25, MC3)
Conditions: male, Sprague-Dawley, rat, spleen, iv
Measured Attribute: Tmax (h)

[[record]]
compound = "CCCCCC=CCC=CCCCCCCCCC(CCCCCCCCC=CCC=CCCCCC)OC(=O)CCCN(C)C (stereo not shown) [MC3, reference compound]"
meas_value = 8


###

Test: Particle size and polydispersity index of nanoparticle compositions (Zetasizer Nano ZS)
Assay type: physicochemical
Details: Table 1A; lipid:DSPC:cholesterol:PEG-DMG 50:10:38.5:1.5 mol %
Measured Attribute: Size (nm)

[[record]]
compound = "CCCCCCCCCOC(=O)CCCCCCCN(CCO)CCCCCCCC(=O)OC(CCCCCCCC)CCCCCCCC [Compound 18]"
meas_value = 87.9

[[record]]
compound = "CCCCCCCCCOC(=O)CCCCCCCN(CCCCO)CCCCCCCC(=O)OC(CCCCCCCC)CCCCCCCC [Compound 20]"
meas_value = 86.7

[[record]]
compound = "CCCCCCCCCOC(=O)CCCCCCCN(CCO)CCCCCCCC(=O)N(CCCCCCCC)CCCCCCCC [Compound 144]"
meas_value = 135.9

[[record]]
compound = "CCCCCCCCCC(=O)OCCCCCCCN(CCO)CCCCCCCOC(=O)C(CCCCCCCC)CCCCCCCC [Compound 151]"
meas_value = 105.7

[[record]]
compound = "CCCCCCCCCOC(=O)CCCCCCCN(CCO)CCCCCCC(=O)OCC(CCCCCCCC)CCCCCCCC [Compound 143]"
meas_value = 98.8

[[record]]
compound = "CCCCCCCCCCCCCCN(CCO)CCCCCCCC(=O)OC(CCCCCCCC)CCCCCCCC [Compound 2]"
meas_value = 83.9

[[record]]
compound = "CCCCCCCCCOC(=O)CCCCCCCN(CCO)CCCCCCCC(=O)OC1CCC(C2CCCCC2)CC1 (stereo not shown) [Compound 80]"
meas_value = 118

[[record]]
compound = "CCCCCCCCCOC(=O)CCCCCCCN(CCCCCCCC(=O)OC(CCCCCCCC)CCCCCCCC)CCN1CCOCC1 [Compound 103]"
meas_value = 78.8

[[record]]
compound = "CCCCCCCCCOC(=O)CCCCCCCN(CCO)CCCCCCCOC(=O)C(CCCCCCCC)CCCCCCCC [Compound 30]"
meas_value = 59.4

[[record]]
compound = "CCCCCCCCCOC(=O)C(C)CCCCCCN(CCO)CCCCCCCC(=O)OC(CCCCCCCC)CCCCCCCC (stereo not shown) [Compound 164]"
meas_value = 84.5

[[record]]
compound = "CCCCCCCCCN(CCCCCCCC(=O)OC(CCCCCCCC)CCCCCCCC)CCCn1ccnc1 [Compound 8]"
meas_value = 121.0

[[record]]
compound = "CCCCCCCCC(CCCCCCCC)OC(=O)CCCCCCCN(CCO)CCCCCCCC(=O)OCC(C)CCCCCCC (stereo not shown) [Compound 184]"
meas_value = 77.2

[[record]]
compound = "CCCCCCCCC(CC)OC(=O)CCCCCCCN(CCO)CCCCCCCC(=O)OC(CCCCCCCC)CCCCCCCC (stereo not shown) [Compound 49]"
meas_value = 88


Data origin: patent US10857105B2
